tested on: SK-OV-3 ovarian; experiment: NCI tumour cell line growth inhibition, 48 h
MEASURED_ENDPOINT: TGI

Below: 7 molecules and their reported TGI.
MOLECULE	TGI
CC1OC(OC2C(O[C@H]3CC[C@@]4(C)[C@@H](CC[C@@H]5[C@@H]4CC[C@]4(C)[C@@H]6[C@H](C[C@@H]54)O[C@]4(CC[C@@H](C)CO4)[C@H]6C)C3)OC(CO)C(OC3OC(CO)C(O)C(OC4OCC(O)C(O)C4O)C3OC3OCC(O)C(O)C3O)C2O)C(O)C(O)C1O (stereo partly drawn)	3.44 µM
COc1ccc(/C(=N/NC(=O)NN)C(c2ccc(OC)cc2)C2(O)CNc3c(Cl)cc(Cl)cc32)cc1 (stereo not drawn)	> 100 µM
ClC1=C(Cl)C(Cl)=C(Cl)C1=C/C=C/c1ccccc1	> 27.5 µM
O=P(Oc1ccccc1)(Oc1ccccc1)Oc1c[nH]c2ccccc12	18.3 µM
CCSCC(N)C(=O)O (stereo not drawn)	> 100 µM
CSc1cnn(CCC#N)c(=O)n1	> 100 µM
COc1ccc(/C=C2\C[C@H]3[C@@H]4CCC5=C[C@@H](N6CCCC6)CC[C@]5(C)[C@H]4CC[C@]3(C)[C@H]2O)cc1	14.8 µM

Answer with the recorded TGI for the molecule listed here: `CSc1nc(-c2cc3c(c(SC)n2)CCCCC3)cc2c1CCCCC2` > 100 µM

* * *

test system: SF-295 CNS; assay: NCI tumour cell line growth inhibition, 48 h
So I've got a bunch of molecules here, and I need their GI50 values.

Below: 4 molecules and their reported GI50.
MOLECULE	RESULT
COCC1CCCN1c1ccc(/C=C(/C#N)C(N)=S)cc1 (centres undefined)	> 100000 nM
Cc1nc2sccn2c(=O)c1CCN1CCC(=C(c2ccc(F)cc2)c2ccc(F)cc2)CC1	13000 nM
COC(=O)c1ccc2c(c1)nc(-c1cc3ccccc3[nH]c1=O)n2-c1cc(C(C)(C)C)[nH]n1	2140 nM
CCN(CC)c1cc(/C=C/c2ccc(OC)c(OC)c2)nc2cc(F)c(F)cc12	2030 nM

Give GI50 for each listed item.
1. CCOC(=O)c1sc2nc3sc(N=Nc4ccc(Cl)cc4)c(O)n3c(=S)c2c1C
2. NCCCNc1nc2ccccc2c2c(=O)c3cc(C(F)(F)F)ccc3sc12
3. C=C(C)[C@@H]1CC[C@]2(C)[C@H](C(=O)C=C3[C@@H]4C[C@](C)(C(=O)N5CCN(C)CC5)CC[C@]4(C)CC[C@]32C)[C@@]1(C)CCC#N
4. OCCCN=NNc1ccc(-c2nc3ccccc3[nH]2)cc1

31000 nM
1800 nM
7750 nM
2870 nM

Consider the molecule `O=[N+]([O-])c1ccc(-c2nc(-c3ccccc3)c(-c3ccccc3)n2-c2ccccc2)cc1` tested on SF-295 CNS; state its GI50. 2680 nM

* * *

test system: HCT-15 colon; assay: NCI tumour cell line growth inhibition, 48 h
So I've got a bunch of compounds here, and I need their TGI values.

COMPOUND	MEASURED_ENDPOINT	RESULT
CCCN(CCCC(NC(C)=O)C(=O)NCc1ccccc1)C(=O)NC (stereo unspecified)	TGI	> 100 µM
COc1cc(CCCOC(=O)/C=C/c2ccc(O)c(O)c2)cc(O)c1O	TGI	> 100 µM
CCCCC(=O)Nc1ccc2cc(C(=O)OC)c(ON3C(=O)c4ccccc4C3=O)nc2n1	TGI	> 100 µM
COCC1OC(OC2C3=C(C(C)C)CCC3(C)/C=C3\C(CCC3(O)COC)C(C)C2O)C(O)C2OC3OC12OC3(C)C1CO1 (stereo unspecified)	TGI	> 100 µM
CN1CN(c2ccccc2)C2(CCN(CCCSc3ccccc3NC(=O)/C=C/c3ccccc3)CC2)C1=O	TGI	26.5 µM
CCCC/C=C/C1Cc2ccccc2CN1S(=O)(=O)c1ccc(C)cc1 (stereo unspecified)	TGI	49.2 µM
NS(=O)(=O)c1cc2c(cc1Cl)NC(Cc1ccccc1)NS2(=O)=O (stereo unspecified)	TGI	> 100 µM
NC(N)=NS(=O)(=O)c1ccc(NCc2c3ccccc3nc3ccccc23)cc1	TGI	> 100 µM
O=C1C(/C=C/c2ccc(Cl)cc2)=NNC2N1N=C1NC(=O)C3(NN12)c1ccccc1-c1ccccc13 (stereo unspecified)	TGI	> 100 µM
O=S(O)CCCCCSSCCCCSSCCCCCS(=O)O	TGI	> 100 µM

Give TGI for each listed item.
1. COc1ccc(-c2csc(=Nc3ccccc3)n2CC(O)c2ccc([N+](=O)[O-])cc2)cc1 (stereo unspecified)
2. CCC(C)n1cc(C)c2c(C(=O)NCc3c(C)cc(C)[nH]c3=O)cc(Br)cc21 (stereo unspecified)
3. COc1ccc(N=C(C)c2ccncc2)cc1
4. N/N=C1\C(=O)N(C2CCCCC2)C(=O)C1C(=O)NC1CCCCC1 (stereo unspecified)
5. Cc1nc2sccn2c(=O)c1CCN1CCC(=C(c2ccc(F)cc2)c2ccc(F)cc2)CC1

1: > 100 µM; 2: > 100 µM; 3: > 100 µM; 4: > 100 µM; 5: 17.5 µM

Give TGI for each listed item.
1. CC1(c2nc3cc(Cl)c(Cl)cc3[nH]2)CCC(CO)C(C)(C)O1 (stereo unspecified)
2. CC(C)(C)N(Cc1ccc2c(c1)OCO2)C(=O)/C=C\S(=O)c1ccccc1 (stereo unspecified)
3. CC1=C2c3c(C)ccc4ccc(C)c(c34)C2(O)C(C)C1=O (stereo unspecified)
4. CC1(C2(C)OC(=O)c3ccccc32)OC(=O)c2ccccc21 (stereo unspecified)
5. COc1cccc(C2C(C#N)=C(N)Oc3cc(N)ccc32)c1 (stereo unspecified)
6. O=c1[nH]c(=O)n(C2CC(O)C(CO)O2)cc1OCCCc1ccccc1 (stereo unspecified)

1: > 100 µM; 2: 13.2 µM; 3: > 100 µM; 4: > 100 µM; 5: > 100 µM; 6: > 100 µM

* * *

So I've got a bunch of compounds here, and I need their TGI values.
test system: SR leukemia; experiment: NCI tumour cell line growth inhibition, 48 h

Below: 6 compounds and their reported TGI.
COMPOUND	SYSTEM_TESTED	RESULT
Cc1cc(C)nc(NS(=O)(=O)c2ccc(Nc3c4ccccc4nc4c(C(=O)NCCCN(CCO)CCO)cccc34)cc2)n1	SR leukemia	> 100 µM
CC(=O)C1CC=C(C)CC1 (stereo unspecified)	SR leukemia	> 100 µM
CC(C)(C)NN=C1C(C)(C)C(=NNC(C)(C)C)C1(C)C	SR leukemia	> 100 µM
CCCCCCOc1ccc(C(=O)NOCc2ccccc2)cc1	SR leukemia	67.4 µM
Cc1cccc2c1Oc1cc(Cl)ccc1C2NC(=O)CCN1CCN(CCO)CC1 (stereo unspecified)	SR leukemia	45.1 µM
Cc1ccc(-c2nc(SCC(=O)O)n[nH]2)cc1	SR leukemia	> 100 µM

Give TGI for each listed item.
1. CN1CN(c2ccccc2)C2(CCN(CCCSc3ccccc3NC(=O)/C=C/c3ccccc3)CC2)C1=O
2. COc1ccccc1-n1c(-c2cc(O)ccc2C)cn2c3c(=O)[nH]c(=O)n(C)c3nc12
3. Cn1c2c(c3ccccc31)C1CCCCC1C1C(=O)NC(=O)C21 (stereo unspecified)

1: 12.3 µM; 2: > 100 µM; 3: > 100 µM

Give TGI for each listed item.
1. Cc1cc2c(=O)n(-c3ccc(F)cc3)c(C)nc2c(C(=O)O)c1C
2. NC(=NCCCOc1ccc(Cl)cc1)Nc1ccc(Cl)cc1

1. > 100 µM
2. 5.9 µM

* * *

tested on: ACHN renal; assay: NCI tumour cell line growth inhibition, 48 h
MEASURED_ENDPOINT: TGI

Below: 4 compounds and their reported TGI.
COMPOUND	RESULT
Nc1nc(SCCNC(=O)CCc2ccc(O)cc2)nc2c1ncn2C1OC(CO)C(O)C1O (stereo not given)	> 203 µM
O=C(/C=C/c1ccc(Cl)cc1)Oc1ccc(/C=C2\CCCCC2=O)cc1	> 100 µM
Cc1cc(C)nc(NS(=O)(=O)c2ccc(Nc3c4ccccc4nc4c(C(=O)NCCCN(CCO)CCO)cccc34)cc2)n1	> 100 µM
CC1(C)C(=O)C(C)(C)C12SSC1(S2)C(C)(C)C(=O)C1(C)C	> 100 µM

Answer with the recorded TGI for the compound listed here: COc1ccc(C2SCC(=O)N2c2ccc(-n3c(-c4ccccc4)nc4ccccc4c3=O)cc2)cc1OC (stereo not given) > 100 µM

* * *

tested on: RXF 393 renal; test: NCI tumour cell line growth inhibition, 48 h
MEASURED_ENDPOINT: TGI (µM)
One number for each entry, in µM.

Below: 6 compounds and their reported TGI.
COMPOUND	MEASURED_ENDPOINT	UNITS_SYMBOL	NUMBER
CN(C)CCNc1ccc2c(=O)n(CCN(C)C)c(=O)n3c4ccc([N+](=O)[O-])cc4c(=O)c1c23	TGI	µM	0.996
CCCC/C=C/C1Cc2ccccc2CN1S(=O)(=O)c1ccc(C)cc1 (centres undefined)	TGI	µM	23.9
O=[N+]([O-])c1ccc(-c2nc(-c3ccccc3)c(-c3ccccc3)n2-c2ccccc2)cc1	TGI	µM	9.78
COC(=O)C1(Cc2ccc3c(c2)CCC3)Cc2ccc3c(c2C1O)CCC3 (centres undefined)	TGI	µM	31
O=C1/C(=C\c2cccc(Oc3ccccc3)c2)S(=O)(=O)C(c2ccccc2)N1c1ccc(Cl)cc1 (centres undefined)	TGI	µM	29.4
NCCCNc1nc2ccccc2c2c(=O)c3cc(C(F)(F)F)ccc3sc12	TGI	µM	2.72

Give TGI for each listed item.
1. O=C/C(=C(/Br)I)c1ccccc1
2. CC(=O)N1CC(Nc2ccc(OC(F)(F)F)cc2)=CC1=O

7.2
5.92

Give TGI for each listed item.
1. Cc1cccc2c1Oc1ccccc1C2NC(=O)c1ccc([N+](=O)[O-])cc1 (centres undefined)
2. COc1ccccc1-n1c(-c2cc(O)ccc2C)cn2c3c(=O)[nH]c(=O)n(C)c3nc12
3. S=C(N/N=C(/c1ccccc1)c1ccccn1)Nc1ccccc1Cl
4. O=C(NNC(=S)Nc1ccccc1)c1ccccc1Nc1ccccc1C(=O)NNC(=S)Nc1ccccc1
5. Cc1nc2sccn2c(=O)c1CCN1CCC(=C(c2ccc(F)cc2)c2ccc(F)cc2)CC1
6. CCC1=CC2CN3CCc4c([nH]c5ccccc45)C(C(=O)OC)(C2)C13 (centres undefined)
7. CC(=O)c1c(C(F)(F)F)n([O-])c2ccc(Cl)cc2[n+]1=O

1. 89.2
2. 4.11
3. 4.24
4. 45.4
5. 26.9
6. 78.7
7. 25.4

Give TGI for each listed item.
1. COc1cc(-c2oc3c(OC)c(O)c(OC)c(O)c3c(=O)c2OC)cc(O)c1OC
2. C[C@H](Nc1c(O)c2c(c(O)c1Cl)C(=O)C=CC2=O)C(=O)Nc1ccc([N+](=O)[O-])cc1
3. O=C(OCc1ccccc1)N1CCN(/[N+]([O-])=N/Oc2ccc([N+](=O)[O-])cc2[N+](=O)[O-])CC1

[79.4, 3.04, 56.5]
